Ref: patent US20240287080A1

This listing pairs compounds with measured IC50.
- system_name: Pol theta (1-899) (Homo sapiens, UniProt O75417)
- Construct: Pol theta (1-899) (5 nM) in assay buffer
- Sequence (O75417 1-899): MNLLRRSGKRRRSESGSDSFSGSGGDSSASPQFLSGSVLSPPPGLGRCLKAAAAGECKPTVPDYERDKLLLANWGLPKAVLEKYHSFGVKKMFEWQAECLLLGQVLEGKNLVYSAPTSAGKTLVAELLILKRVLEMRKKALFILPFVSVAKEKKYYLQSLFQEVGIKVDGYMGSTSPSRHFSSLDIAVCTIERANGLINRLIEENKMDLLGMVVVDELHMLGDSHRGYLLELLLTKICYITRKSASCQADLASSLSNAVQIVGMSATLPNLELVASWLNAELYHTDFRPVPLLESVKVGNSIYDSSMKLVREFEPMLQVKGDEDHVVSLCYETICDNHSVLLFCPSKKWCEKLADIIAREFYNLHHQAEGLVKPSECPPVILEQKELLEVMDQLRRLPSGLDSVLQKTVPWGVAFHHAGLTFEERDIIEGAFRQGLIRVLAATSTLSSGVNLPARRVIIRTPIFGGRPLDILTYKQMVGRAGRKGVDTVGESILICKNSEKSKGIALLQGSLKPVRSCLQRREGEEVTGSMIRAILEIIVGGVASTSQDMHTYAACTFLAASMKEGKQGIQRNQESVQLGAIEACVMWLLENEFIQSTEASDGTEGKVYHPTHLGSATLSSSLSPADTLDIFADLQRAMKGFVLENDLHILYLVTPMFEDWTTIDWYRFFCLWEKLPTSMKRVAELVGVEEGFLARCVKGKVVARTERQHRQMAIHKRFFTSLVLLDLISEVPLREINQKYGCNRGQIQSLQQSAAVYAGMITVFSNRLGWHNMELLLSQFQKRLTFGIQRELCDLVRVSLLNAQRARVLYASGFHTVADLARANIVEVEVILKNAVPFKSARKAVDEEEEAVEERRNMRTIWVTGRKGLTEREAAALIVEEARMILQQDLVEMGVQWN
- method_notes: Pol theta ATPase activity, NADH oxidation-coupled enzymatic assay (ATPase NADH coupling: Standard Screening: hPolQ)
- Format: biochemical
- assay_setup: Table 5; Pol theta (1-899) 5 nM, ATP, dT50 ssDNA

compound | IC50
COc1cnc(Cl)c(F)c1-c1cc(C)ncc1C(=O)Nc1nnc(O[C@H]2CC[C@@H](OC)CC2)s1 (single isomer, unassigned) [Example 152] | ≤ 0.2 µM
COc1nnc(NC(=O)c2cnc(C)cc2-c2ccnc3nccn23)s1 [Example 88] | 1 to 10 µM
COc1cnc(Cl)cc1-c1cc(C)ncc1C(=O)Nc1nnc(O[C@@H]2COCC2(F)F)s1 (single isomer, unassigned) [Example 127] | ≤ 0.2 µM
COc1cnc(Cl)cc1-c1cc(C)ncc1C(=O)Nc1nnc(O[C@@H]2C[C@H]3CC[C@@H]2O3)s1 (single isomer, unassigned) [Example 216] | ≤ 0.2 µM
COc1cnc(Cl)cc1-c1cc(C)ncc1C(=O)Nc1nnc(O[C@H]2CC[C@]3(CCO3)CC2)s1 (single isomer, unassigned) [Example 185] | ≤ 0.2 µM
COc1cnc(Cl)c(F)c1-c1cc(C)ncc1C(=O)Nc1nnc(O[C@H]2CCOC2)s1 [Example 81] | ≤ 0.2 µM
COc1nnc(NC(=O)c2cnc(C)cc2-c2cnn3c2OCC3)s1 [Example 126] | 1 to 10 µM
COc1cnc(Cl)cc1-c1cc(C)ncc1C(=O)Nc1nnc(O[C@H]2CC[C@H](OC)C2)s1 (racemic) [Example 149] | ≤ 0.2 µM
COc1cnc(Cl)c(F)c1-c1cc(C)ncc1C(=O)Nc1nnc(O[C@H]2C[C@H](OC)C2)s1 (single isomer, unassigned) [Example 151] | ≤ 0.2 µM
COCc1cc(-c2cc(Cl)ncc2OC)c(C(=O)Nc2nnc(OC)s2)cn1 [Example 158] | ≤ 0.2 µM
COc1cnc(Cl)cc1-c1cc(C)ncc1C(=O)Nc1nnc(O[C@H]2CC[C@@H](CO)CC2)s1 [Example 169] | ≤ 0.2 µM
COc1cnc(Cl)cc1-c1cc(OC2CC2)ncc1C(=O)Nc1nnc(O[C@@H]2CCOC2)s1 [Example 193] | 0.5 to 1 µM
COCc1cc(-c2cc(Cl)ncc2OC)c(C(=O)Nc2nnc(O[C@@H]3CCOC3)s2)cn1 [Example 142] | ≤ 0.2 µM
COc1cnc(Cl)cc1-c1cc(C)ncc1C(=O)Nc1nnc(O[C@H]2CCC[C@H](OC)C2)s1 (single isomer, unassigned) [Example 147] | ≤ 0.2 µM

* * *

- system_name: Pol theta (1-899) (Homo sapiens, UniProt O75417)
- Construct: Pol theta (1-899) (5 nM) in assay buffer
- method_notes: Pol theta ATPase activity, NADH oxidation-coupled enzymatic assay (ATPase NADH coupling: Standard Screening: hPolQ)
- Format: biochemical
- assay_setup: Pol theta (1-899) 5 nM, NADH oxidation-coupled ATPase assay; compounds of Table 3
pIC50: −log10 of the molar value.
This listing pairs molecules with measured pIC50.

molecule | pIC50
COc1nnc(NC(=O)c2cnc(C)cc2-c2cncc(C(=O)N(C)C)c2)s1 [Example 483] | 5.00 to 6.00
COc1nnc(NC(=O)c2cnc(C)cc2-c2ccc(S(=O)(=O)N(C)C)cc2)s1 [Example 382] | 5.00 to 6.00
COc1nnc(NC(=O)c2cnc(C)cc2-c2cc(C)c([S@@+](C)[O-])cc2OC)s1 (single isomer, unassigned) [Example 308] | 5.00 to 6.00
COc1nnc(NC(=O)c2cnc(C)cc2-c2cccc(C)c2F)s1 [Example 414] | ≥ 6.70
COc1nnc(NC(=O)c2cnc(C)cc2-c2cnn(Cc3ccccc3)c2)s1 [Example 468] | 5.00 to 6.00
COc1cnc(Cl)cc1-c1cc(C)ncc1C(=O)Nc1nnc(O[C@@H]2CC[C@@]23CCOC3)s1 (racemic) [Example 295] | ≥ 6.70
COc1nnc(NC(=O)c2cnc(C)cc2-c2ccncc2C)s1 [Example 406] | 5.00 to 6.00
COc1nnc(NC(=O)c2ccc([N+](=O)[O-])cc2-c2cc(Cl)ncc2OC)s1 [Example 300] | ≥ 6.70
COc1cnc(Cl)cc1-c1cc(C)ncc1C(=O)Nc1nnc(OC2([C@H]3CCOC3)CC2)s1 (single isomer, unassigned) [Example 297] | ≥ 6.70
COc1nnc(NC(=O)c2cnc(C)cc2-c2cnc(C(F)(F)F)cc2C)s1 [Example 424] | 5.00 to 6.00
CCOc1cc(C(=O)Nc2nnc(OC)s2)c(-c2cc(Cl)ncc2OC)cn1 [Example 276] | ≥ 6.70
COc1nnc(NC(=O)c2cnc(C)cc2-c2cccc3cnccc23)s1 [Example 372] | 6.30 to 6.70
CCc1ccc(-c2cc(C)ncc2C(=O)Nc2nnc(OC)s2)cc1 [Example 459] | 5.00 to 6.00
COc1nnc(NC(=O)c2cnc(C)cc2-c2cccc(C(N)=O)c2)s1 [Example 488] | 5.00 to 6.00
COc1nnc(NC(=O)c2cnc(C)cc2-c2ccc(S(N)(=O)=O)cc2)s1 [Example 378] | 5.00 to 6.00
COc1cnc(Cl)cc1-c1cc(C)ncc1C(=O)Nc1nnc(OC2CCN(CC(F)(F)F)CC2)s1 [Example 278] | 6.30 to 6.70
COc1nnc(NC(=O)c2cnc(C)cc2-c2ccc(N3CCCCC3)cc2)s1 [Example 476] | 5.00 to 6.00

* * *

- system_name: Pol theta (1-899) (Homo sapiens)
- Construct: Pol theta (1-899) (5 nM) in assay buffer
- method_notes: Pol theta ATPase activity, NADH oxidation-coupled enzymatic assay (ATPase NADH coupling: Standard Screening: hPolQ)
- Type: biochemical
- assay_setup: Pol theta (1-899) 5 nM, NADH oxidation-coupled ATPase assay; compounds of Table 3
This listing pairs compounds with measured IC50.

compound | IC50
COc1nnc(NC(=O)c2cnc(C)cc2-c2cc(F)cnc2OC)s1 | 0.5 to 1 µM
COc1nnc(NC(=O)c2cnc(C)cc2-c2cc(Cl)c([S+](C)[O-])cc2OC)s1 (single isomer, unassigned) [Example 298] | 0.5 to 1 µM
COc1nnc(NC(=O)c2ccc(C)cc2-c2cc(Cl)ncc2OC)s1 | ≤ 0.2 µM
COc1nnc(NC(=O)c2cnc(C)cc2-c2ccc(C(=O)N(C)C)cc2)s1 | 1 to 10 µM
COc1cnc(C)c(F)c1-c1cc(C)ncc1C(=O)Nc1nnc(OC2([C@@H]3CCOC3)CC2)s1 (single isomer, unassigned) | ≤ 0.2 µM
COc1nnc(NC(=O)c2ccc(F)cc2-c2cc(Cl)ncc2OC)s1 | ≤ 0.2 µM
COc1nnc(NC(=O)c2cnc(C)cc2-c2cccc3ccoc23)s1 | 0.2 to 0.5 µM
COc1nnc(NC(=O)c2cnc(C)cc2-c2cc(C#N)cc(OC(F)(F)F)c2)s1 | 1 to 10 µM

* * *

This listing pairs molecules with measured pIC50.
- system_name: Pol theta (1-899) (Homo sapiens, UniProt O75417)
- Construct: Pol theta (1-899) (5 nM) in assay buffer
- method_notes: Pol theta ATPase activity, NADH oxidation-coupled enzymatic assay (ATPase NADH coupling: Standard Screening: hPolQ)
- Assay type: biochemical
- assay_setup: Table 5; Pol theta (1-899) 5 nM, ATP, dT50 ssDNA
pIC50: −log10 of the molar value.

molecule | pIC50
Cc1cc(-c2cc(Cl)ncc2OC(F)F)c(C(=O)Nc2nnc(O[C@H]3CC[C@H](O)CC3)s2)cn1 [Example 203] | ≥ 6.70
COc1cnc(Cl)cc1-c1cc(C)ncc1C(=O)Nc1nnc(O[C@H]2CCC[C@@H](OC)C2)s1 (single isomer, unassigned) [Example 145] | ≥ 6.70
COc1nnc(NC(=O)c2cnc(C)cc2-c2ccc3nscc3c2)s1 [Example 105] | 5.00 to 6.00
COc1cnc(Cl)cc1-c1cc(C)ncc1C(=O)Nc1nnc(O[C@@]2(C)CCOC2)s1 (single isomer, unassigned) [Example 138] | ≥ 6.70
COc1cnc(Cl)cc1-c1cc(C)ncc1C(=O)Nc1nnc(O[C@H]2CC[C@H](OC)CC2)s1 (single isomer, unassigned) [Example 125] | ≥ 6.70
COc1cnc(Cl)c(F)c1-c1cc(C)ncc1C(=O)Nc1nnc(O[C@H]2CC[C@H](OC)CC2)s1 (single isomer, unassigned) [Example 153] | ≥ 6.70
COc1cnc(Cl)cc1-c1cc(C)ncc1C(=O)Nc1nnc(O[C@H]2CC[C@H]2O)s1 (racemic) [Example 112] | 6.30 to 6.70

* * *

This listing pairs molecules with measured pIC50.
- system_name: Pol theta (1-899) (Homo sapiens)
- Construct: Pol theta (1-899) (5 nM) in assay buffer
- method_notes: Pol theta ATPase activity, NADH oxidation-coupled enzymatic assay (ATPase NADH coupling: Standard Screening: hPolQ)
- Type: biochemical
- assay_setup: Table 5; Pol theta (1-899) 5 nM, ATP, dT50 ssDNA
pIC50: −log10 of the molar value.

molecule | pIC50
COc1cnc(Cl)cc1-c1cc(C)ncc1C(=O)Nc1nnc(O[C@H]2C[C@@H](O)C2(C)C)s1 (single isomer, unassigned) | ≥ 6.70
COc1cnc(Cl)cc1-c1cc(C)ncc1C(=O)Nc1nnc(O[C@H]2CC[C@@](C)(O)CC2)s1 (single isomer, unassigned) | ≥ 6.70
Cc1cc(-c2cc(Br)ncc2OC(F)F)c(C(=O)Nc2nnc(O[C@H]3CC[C@H](O)CC3)s2)cn1 | ≥ 6.70
